Molecular target: IRAK4 protein in THP-1 cells (Homo sapiens, UniProt Q9NWZ3)
Construct: endogenous in cells; host or cells: THP-1
Sequence (Q9NWZ3 whole entry): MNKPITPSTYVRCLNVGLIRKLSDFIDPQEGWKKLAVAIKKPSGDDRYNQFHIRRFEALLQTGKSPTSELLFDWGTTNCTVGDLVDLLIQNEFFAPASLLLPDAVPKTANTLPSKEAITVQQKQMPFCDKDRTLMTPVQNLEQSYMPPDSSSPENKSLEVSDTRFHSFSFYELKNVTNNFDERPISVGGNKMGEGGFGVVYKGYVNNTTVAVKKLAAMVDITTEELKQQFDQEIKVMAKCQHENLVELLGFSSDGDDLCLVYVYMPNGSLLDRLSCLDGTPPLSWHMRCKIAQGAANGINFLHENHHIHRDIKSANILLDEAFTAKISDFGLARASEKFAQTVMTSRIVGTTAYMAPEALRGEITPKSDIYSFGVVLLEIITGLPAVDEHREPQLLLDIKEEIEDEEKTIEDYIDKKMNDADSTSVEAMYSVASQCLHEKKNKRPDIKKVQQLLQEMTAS
Assay: Degradation of IRAK4 in THP-1 cells (Western blot)
Type: cell-based
Settings: 24 hours, compound 1-3000 nM
Procedure: Each well of the 24-well cell culture plate was inoculated with 0.95 mL THP-1 cells (stem cell bank of Chinese academy of sciences) with a cell density of 5×10^5 cells/well. […] Western blot method: The total protein concentration in the supernatant of cell lysis was determined by BCA protein quantitative kit (Tiangen). […] The protein map was analyzed by Clinx chemiluminescence analysis software for grayscale values. […]
DC50 strictly under 20 nM means T; at 20 nM or over means F.

# count of solved cases: 2
compound	class
COc1cc2nn(C3CCN(CCC4CC5(CCN(C(=O)c6ccc(Cl)c(N7CCC(=O)NC7=O)c6)CC5)C4)CC3)cc2cc1NC(=O)c1cccc(C(F)(F)F)n1	T
COc1cc2nn(C3CCN(CC4CCC5(CC4)CCN(C(=O)c4ccc(F)c(C6CCC(=O)NC6=O)c4)CC5)CC3)cc2cc1NC(=O)c1cccc(C(F)(F)F)n1 (centres unmarked)	T

# check: DC50 < 20 nM for COc1ccc(C(=O)N2CCC3(CCN(CCCN4CCC(n5cc6cc(NC(=O)c7cccc(C(F)(F)F)n7)c(C(C)(C)O)cc6n5)CC4)CC3)CC2)cc1N1CCC(=O)NC1=O F

# check: DC50 < 20 nM for CN(CC1CCN(C(=O)c2ccc(Cl)c(N3CCC(=O)NC3=O)c2)CC1)C[C@H]1CC[C@H](n2cc3cc(NC(=O)c4cccc(C(F)(F)F)n4)c(C(C)(C)O)cc3n2)CC1 T

# check: DC50 < 20 nM for COc1ccc(C(=O)N2CCC(OCCN3CCC(n4cc5cc(NC(=O)c6cccc(C(F)(F)F)n6)c(C(C)(C)O)cc5n4)CC3)CC2)cc1N1CCC(=O)NC1=O F

# check: DC50 < 20 nM for COc1cc2nn(C3CCN(CCOC4CCN(C(=O)c5ccc(OC)c(N6CCC(=O)NC6=O)c5)CC4)CC3)cc2cc1NC(=O)c1cccc(C(F)(F)F)n1 T

# check: DC50 < 20 nM for COc1ccc(C(=O)N2CCC3(CCC(CN4CCC(n5cc6cc(NC(=O)c7cccc(C(F)(F)F)n7)c(C(C)(C)O)cc6n5)CC4)CC3)CC2)cc1N1CCC(=O)NC1=O T

# check: DC50 < 20 nM for COc1ccc(C(=O)N2CCC(CCCN3CCC(n4cc5cc(NC(=O)c6cccc(C(F)(F)F)n6)c(C(C)(C)O)cc5n4)CC3)CC2)cc1N1CCC(=O)NC1=O T

# check: DC50 < 20 nM for COc1cc2nn(C3CCN(CCCCN4CCC5(CC4)CCN(C(=O)c4ccc(OC)c(N6CCC(=O)NC6=O)c4)CC5)CC3)cc2cc1NC(=O)c1cccc(C(F)(F)F)n1 F

# check: DC50 < 20 nM for COc1cc2nn(C3CCN(CCOCCOc4ccc5c(c4)C(=O)N(C4CCC(=O)NC4=O)C5=O)CC3)cc2cc1NC(=O)c1cccc(C(F)(F)F)n1 (centres unmarked) [Control group 1, reference compound] F

# check: DC50 < 20 nM for COc1ccc(C(=O)N2CCC3(CCN(CCN4CCC(n5cc6cc(NC(=O)c7cccc(C(F)(F)F)n7)c(C(C)(C)O)cc6n5)CC4)CC3)CC2)cc1N1CCC(=O)NC1=O T

* * *

Biological target: IRAK4 protein in THP-1 cells (Homo sapiens, UniProt Q9NWZ3)
Construct: endogenous in cells; host or cells: THP-1
Assay: Degradation of IRAK4 in THP-1 cells (Western blot)
Assay type: cell-based
Conditions: 24 hours, compound 1-3000 nM
assay_metric: Dmax (%)
Kindly answer with a numeric value in %, unit omitted.

Please review the following examples before continuing.
compound	Dmax [%]
CC(C)(O)c1cc2nn(C3CCN(CC4CCC5(CC4)CCN(C(=O)c4ccc(F)c(C6CCC(=O)NC6=O)c4)CC5)CC3)cc2cc1NC(=O)c1cccc(C(F)(F)F)n1 (stereo not drawn)	97.7
O=C1CCN(c2cc(C(=O)N3CCC4(CCC(CN5CCC(n6cc7cc(NC(=O)c8cccc(C(F)(F)F)n8)c(OC(F)F)cc7n6)CC5)CC4)CC3)ccc2Cl)C(=O)N1	95.3

# context switch: different compound, same Dmax
Consider the compound COc1cc2nn(C3CCN(CCC4CCN(C(=O)c5ccc(OC)c(N6CCC(=O)NC6=O)c5)CC4)CC3)cc2cc1NC(=O)c1cccc(C(F)(F)F)n1 . State its measured Dmax. 91.7

* * *

Target: IRAK4 protein in THP-1 cells (Homo sapiens)
Construct: endogenous in cells; host or cells: THP-1
Test: Degradation of IRAK4 in THP-1 cells (Western blot)
Type: cell-based
Conditions: 24 hours, compound 1-3000 nM
assay_metric: DC50 (nM)
Kindly answer with a numeric value in nM, unit omitted.

test_smiles	target_or_system	value_unit	endpoint_result
COc1cc2nn(C3CCN(CC4CCC5(CC4)CCN(C(=O)c4ccc(F)c(N6CCC(=O)NC6=O)c4)CC5)CC3)cc2cc1NC(=O)c1cccc(C(F)(F)F)n1	IRAK4 protein in THP-1 cells (Homo sapiens)	nM	2.3
CC(C)(C)C(=O)OCN1C(=O)CCN(c2cc(C(=O)N3CCC4(CCC(CCN5CCC(n6cc7cc(NC(=O)c8cccc(C(F)(F)F)n8)c(C(C)(C)O)cc7n6)CC5)CC4)CC3)ccc2Cl)C1=O	IRAK4 protein in THP-1 cells (Homo sapiens)	nM	3.7
COc1ccc(C(=O)N2CCC3(CC2)CN(CCN2CCC(n4cc5cc(NC(=O)c6cccc(C(F)(F)F)n6)c(C(C)(C)O)cc5n4)CC2)C3)cc1N1CCC(=O)NC1=O	IRAK4 protein in THP-1 cells (Homo sapiens)	nM	1.4

# context switch: different compound, same DC50
Consider the compound COc1cc2nn(C3CCN(CC4CCC5(CC4)CCN(C(=O)c4ccc(OC)c(N6CCC(=O)NC6=O)c4)CC5)CC3)cc2cc1NC(=O)c1cccc(C(F)(F)F)n1 . State its measured DC50. 2.3

* * *

Listed here are compounds together with their documented pIC50.
Test system: Interleukin-6 (IL-6) in LPS-induced human PBMC
Test: Cytokine secretion of LPS-induced human PBMC, IL-6 AlphaLISA detection
Assay type: cell-based
Conditions: inhibition of IL-6, compound 1 hour or 20 hours, then LPS 100 ng/mL 5 hours
// pIC50: -log10(molar conc.)

Please review the following examples before continuing.
>>> df
                                test_smiles  endpoint_result
0  CC(C)(O)c1cc2nn(C3CCN(CCC4CCC5(CC4)CCN(C(=O)c4ccc(Cl)c(N6CCC(=O)NC6=O)c4)CC5)CC3)cc2cc1NC(=O)c1cccc(C(F)(F)F)n1             8.33
1  COc1cc2nn(C3CCN(CC4CCC5(CC4)CCN(C(=O)c4ccc(Cl)c(N6CCC(=O)NC6=O)c4)CC5)CC3)cc2cc1NC(=O)c1cccc(C(F)(F)F)n1             8.01
2  COc1cc2nn([C@H]3CC[C@H](CCN4CCC5(CC4)CCN(C(=O)c4ccc(Cl)c(N6CCC(=O)NC6=O)c4)CC5)CC3)cc2cc1NC(=O)c1cccc(C(F)(F)F)n1             8.59
3  CC(C)(O)c1cc2nn(C3CCN(CC4CCC5(CC4)CCN(C(=O)c4ccc(Cl)c(N6CCC(=O)NC6=O)c4)CC5)CC3)cc2cc1NC(=O)c1cccc(C(F)(F)F)n1             8.74

# context switch: different compound, same pIC50
Consider the compound COc1cc2nn([C@H]3CC[C@H](CN(C)CCC4CCN(C(=O)c5ccc(Cl)c(N6CCC(=O)NC6=O)c5)CC4)CC3)cc2cc1NC(=O)c1cccc(C(F)(F)F)n1 . State its measured pIC50. 8.43
